Values from patent US20070190523A1

Measured EC50, listed per entry.
- System Name: 84V90M (Human immunodeficiency virus type 1 group M subtype B, UniProt P04585, I572V/L578M)
- Assay Overview: cell-based
- Design: species or system HIV
- Measurement Parameters: MT-4, 84V90M; read-out: Cell-based assay (MT-4) EC50/nM 84V90M
Measured Attribute: EC50 (nM)

INSERT INTO measurements (compound, measured_attribute, units_text, qualifier_operator, assay_result) VALUES
  ('CCOP(=O)(COc1ccc(CC2C(O)C(O)C(Cc3ccc(O)cc3)N(Cc3ccc(O)cc3)C(=O)N2Cc2ccc(O)cc2)cc1)OCC (centres unmarked) [OH, Ph-pOH, OCH2PO3Et2]', 'EC50', 'nM', '=', 1910),
  ('CCOP(=O)(COc1ccc(CC2C(O)C(O)C(Cc3ccccc3)N(Cc3ccccc3)C(=O)N2Cc2ccccc2)cc1)OCC (centres unmarked)', 'EC50', 'nM', '=', 2460),
  ('Nc1n[nH]c2ccc(CN3C(=O)N(Cc4cccc(OCc5ccccc5)c4)C(Cc4ccccc4)C(O)C(O)C3Cc3ccccc3)cc12 (centres unmarked) [m-OBn]', 'EC50', 'nM', '=', 2420),
  ('O=C1N(Cc2ccccc2)[C@H](Cc2ccccc2)[C@H](O)[C@@H](O)[C@@H](Cc2ccccc2)N1Cc1ccc2[nH]ncc2c1 [reference compound]', 'EC50', 'nM', '=', 2310),
  ('Nc1n[nH]c2ccc(CN3C(=O)N(CCCOCP(=O)(O)O)C(Cc4ccccc4)C(O)C(O)C3Cc3ccccc3)cc12 (centres unmarked) [OCH2PO3H2]', 'EC50', 'nM', '>', 600);
